System: NCI-H226 lung
assay.notes: NCI tumour cell line growth inhibition, 48 h
endpoint.name: TGI

- compound: "N#CC12C(=O)N=C(N)C1(C#N)C(c1ccco1)NC1=C2CCCC1 (stereo not drawn)"
  system.under.test: "NCI-H226 lung"
  TGI: "> 100 µM"
- compound: "COc1cc(/C=C/C(=O)CC(=O)/C=C/c2ccc(OC(=O)CCCCC3CCSS3)c(OC)c2)ccc1OC(=O)CCCCC1CCSS1 (stereo not drawn)"
  system.under.test: "NCI-H226 lung"
  TGI: "> 100 µM"

Continue with the compound presented below.
Record request: TGI value, item CSC(=S)N(C)C
> 100 µM
